Tested on: MALME-3M melanoma
assay: NCI tumour cell line growth inhibition, 48 h
readoutKind: log10 of TGI (log10 of the value in µM)
Reminder: these figures are log10 of reported TGI, in µM before transformation.

molecule: CC(C)(C)c1ccc(C(O)c2ccc(C(C)(C)C)cc2)cc1
log10 of TGI: 1.48
//
molecule: O=C(/C=C/c1ccco1)CC(=O)/C=C/c1ccco1
log10 of TGI: 1.32
//
molecule: Cc1ccc(S(=O)(=O)N2CCc3ccc(O)c4c3C2Cc2cc(Cl)ccc2-4)cc1 (centres undefined)
log10 of TGI: 0.98
//
molecule: Nc1c(C(=O)Nc2ccccc2Cl)sc2nc3c(cc12)CCCCCC3
log10 of TGI: 0.97
//
molecule: COc1cc2nc(Nc3cccc(F)c3)nc(Nc3cc(C)[nH]n3)c2cc1OC
log10 of TGI: 0.55

Query: Consider the molecule `CCCN(CCC)c1ccc(/C=N/NC(=O)c2cccnc2)c(Cl)c1` and give its measured log10 of TGI.
Response: 1.56

// data source = PubChem BioAssay (NCI)
